These entries and their values trace back to the RNAGym collection of RNA variant scans (doi:10.1073/pnas.2313332121).

Here the recorded polymerase ribozyme fitness (log ratio) is given for each entry.
B1: TPR 5TU (parent)
chain: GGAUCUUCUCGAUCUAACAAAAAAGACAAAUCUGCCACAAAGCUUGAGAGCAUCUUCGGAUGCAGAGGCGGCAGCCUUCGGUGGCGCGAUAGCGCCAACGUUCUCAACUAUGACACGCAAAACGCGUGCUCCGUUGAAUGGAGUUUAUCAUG

Variants of: B1
Test description: polymerase ribozyme fitness, log enrichment relative to wild type (log ratio); higher = more active; in vitro selection for triplet polymerase activity
This sample holds only a part of the variants without activity.
Endpoint name: polymerase ribozyme fitness (log ratio)

# Sequence variant, Comparison operator, Observed result
data = [
    ("U134A A142G", "=", -3.04),
    ("A47C G83C G112C", "≤", -4.2),
    ("A3G A73U A121U", "=", -0.51),
    ("A16C C57U A60G G86U C125U U134G", "=", -4.12),
    ("C96U U145A A150U", "=", 0.912),
    ("A3C U56G C57G C116G", "=", -2.89),
    ("C18G G84U", "=", -1.93),
    ("A52G G100U A106U", "≤", -4.2),
    ("G74U C85G C99A A107U C125A", "≤", -4.2),
    ("C32U C36U G68A G83U", "≤", -4.2),
    ("U9C C10U A16U A19C C85G G94C C105U A106U", "≤", -4.2),
    ("U56A C87G G94C U104C G117U A119U U134C", "=", -3.94),
    ("A17C G81U C85A C95U C105G A115U", "=", -3.03),
    ("A20G A142C", "=", -1.06),
    ("C116U G124A A142G", "=", -2.45),
    ("C131G G133C G136U G141U", "=", -3.43),
    ("U15C C54A G59A G84U A106G U146G", "=", -2.98),
    ("A40U U61A A107U G128U U151C", "≤", -4.2),
    ("A60C A73G C96U U101G", "=", -3.45),
    ("A12U A28U U44G C93A U102A", "≤", -4.2),
]
